# Tested on: OVCAR4
# protocol: Euclidean distance of Cell Painting phenotypic profile (signed KS, 77 features) to DMSO centroid (dimensionless distance); 5 or 10 uM (library dependent); higher = stronger phenotypic change vs DMSO (phenoactivity)
# experimentalContext: 48 h
experimentalEndpoint: Euclidean distance
Reply: number alone, nothing else.

In: State its Euclidean distance for this compound: CC[C@H]1OC(=O)[C@H](C)[C@@H](O[C@H]2C[C@@](C)(OC)[C@@H](O)[C@H](C)O2)[C@H](C)[C@@H](O[C@@H]2O[C@H](C)C[C@H](N(C)C)[C@H]2O)[C@](C)(O)C[C@@H](C)C(=O)[C@H](C)[C@@H](O)[C@]1(C)O [Erythromycin]
Out: 1.43

In: State its Euclidean distance for this compound: Cc1ccc2c(c1)C(=O)C1(O)CCN(c3ccccc3)C1=N2 (single isomer, unassigned; (-)) [(-)-Blebbistatin]
Out: 1.46

In: State its Euclidean distance for this compound: N#Cc1ccc2[nH]c(O)c(-c3ccc(CN4CCOCC4)cn3)c2c1
Out: 3.02

In: State its Euclidean distance for this compound: CS(=O)(=O)n1cc2c(n1)CN([C@H]1CO[C@H](c3cc(F)ccc3F)[C@@H](N)C1)C2 [Omarigliptin (MK-3102)]
Out: 2.16

In: State its Euclidean distance for this compound: CC(=O)CC/C=C(\C)CC/C=C(\C)CC/C=C(\C)CCC=C(C)C [Teprenone]
Out: 1.23

In: State its Euclidean distance for this compound: Cn1cnc([N+](=O)[O-])c1Sc1ncnc2[nH]cnc12 [Azathioprine]
Out: 0.817

In: State its Euclidean distance for this compound: CC1=C(C(=O)O)N2C(=O)[C@@H](NC(=O)[C@H](N)C3=CCC=CC3)[C@H]2SC1 [Cefradine]
Out: 0.907

In: State its Euclidean distance for this compound: O=C(CCCCCCNC(=O)c1cnc(N(c2ccccc2)c2ccccc2Cl)nc1)NO [Citarinostat (ACY-241)]
Out: 1.75

---

# Test system: 786-O
# protocol: Euclidean distance of Cell Painting phenotypic profile (signed KS, 77 features) to DMSO centroid (dimensionless distance); 5 or 10 uM (library dependent); higher = stronger phenotypic change vs DMSO (phenoactivity)
# experimentalContext: 48 h
Structures can show the parent of a compound that is named as a salt.
experimentalEndpoint: Euclidean distance
Reply: number alone, nothing else.

In: State, for 786-O, measured Euclidean distance of the compound listed here: CN(C)C(=O)COC(=O)Cc1ccc(OC(=O)c2ccc(NC(=N)N)cc2)cc1 [Camostat Mesilate]
Out: 1.16

In: State, for 786-O, measured Euclidean distance of the compound listed here: CC(/C=C1\SC(=S)N(CC(=O)O)C1=O)=C\c1ccccc1
Out: 1.29

In: State, for 786-O, measured Euclidean distance of the compound listed here: CCOC(=O)[C@H](CCc1ccccc1)N[C@@H](C)C(=O)N1Cc2ccccc2C[C@H]1C(=O)O [Quinapril HCl]
Out: 1.41

In: State, for 786-O, measured Euclidean distance of the compound listed here: OC[C@H]1O[C@@H](O[C@@H]2[C@@H](CO)OC(O)(CO)[C@H]2O)[C@H](O)[C@@H](O)[C@H]1O (mixture of isomers)
Out: 1.29

In: State, for 786-O, measured Euclidean distance of the compound listed here: O=C1CCC(N2C(=O)c3ccccc3C2=O)C(=O)N1 (stereo not drawn) [Thalidomide]
Out: 1.48

In: State, for 786-O, measured Euclidean distance of the compound listed here: O=c1[nH]c2ccccc2n1CCN1CCN(c2cccc(C(F)(F)F)c2)CC1
Out: 1.14

In: State, for 786-O, measured Euclidean distance of the compound listed here: CC(C)(C)NCC(O)COc1cccc2c1CC(O)C(O)C2 (stereo not drawn)
Out: 0.954

In: State, for 786-O, measured Euclidean distance of the compound listed here: CC(C)(O/N=C(\C(=O)N[C@@H]1C(=O)N2C(C(=O)[O-])=C(C[n+]3ccccc3)CS[C@H]12)c1csc(N)n1)C(=O)O
Out: 1.39
